Target: T1, human chemokine (C-C motif) receptor 8 (CCR8) (human, UniProt P51685 1-355)
T1 construct: On human peripheral blood lymphocytes / PBMC (native) or on human CCR8 GFP-transfected Ba/F3 cells; also called hCCR8; human CCR8
T1 sequence (P51685 whole entry): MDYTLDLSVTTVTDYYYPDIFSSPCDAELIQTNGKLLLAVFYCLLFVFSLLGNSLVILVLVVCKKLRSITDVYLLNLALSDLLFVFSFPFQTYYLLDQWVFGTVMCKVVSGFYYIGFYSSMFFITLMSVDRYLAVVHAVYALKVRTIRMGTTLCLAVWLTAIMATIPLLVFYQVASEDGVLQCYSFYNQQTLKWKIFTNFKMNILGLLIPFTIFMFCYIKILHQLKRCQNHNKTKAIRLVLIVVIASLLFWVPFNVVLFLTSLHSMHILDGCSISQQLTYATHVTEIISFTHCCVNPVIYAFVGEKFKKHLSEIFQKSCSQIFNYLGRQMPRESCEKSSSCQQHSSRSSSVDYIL
Assay: flow cytometry blocking, PBMC CCR8+ CD4+ cells; competitor PE-ABII (its MFI is read)
Entry flag: Met if MFI reaches 1000; Not met if it does not.

{"BINDER": "AB11 (antibody, V domains shown, Hybridoma monoclonal; also called antibody 11; clone 11) VH: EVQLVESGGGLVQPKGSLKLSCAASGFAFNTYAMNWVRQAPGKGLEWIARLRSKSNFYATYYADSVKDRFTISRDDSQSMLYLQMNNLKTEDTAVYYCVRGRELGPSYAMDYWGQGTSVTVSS VL: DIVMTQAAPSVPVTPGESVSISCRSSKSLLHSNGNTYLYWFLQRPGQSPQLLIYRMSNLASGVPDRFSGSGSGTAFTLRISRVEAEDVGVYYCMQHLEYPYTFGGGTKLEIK", "ASSIGNED CATEGORY": "Not met"}
{"BINDER": "AB5 (antibody, V domains shown, Hybridoma monoclonal; also called antibody 5; clone 5) VH: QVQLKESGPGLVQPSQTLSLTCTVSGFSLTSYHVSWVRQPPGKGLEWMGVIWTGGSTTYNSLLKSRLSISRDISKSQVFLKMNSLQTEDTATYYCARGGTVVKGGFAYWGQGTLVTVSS VL: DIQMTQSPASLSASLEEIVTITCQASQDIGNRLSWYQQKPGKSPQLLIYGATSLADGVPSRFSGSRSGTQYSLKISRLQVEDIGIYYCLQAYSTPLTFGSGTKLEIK", "ASSIGNED CATEGORY": "Met"}
{"BINDER": "AB3 (antibody, V domains shown, Hybridoma monoclonal; also called antibody 3; clone 3) VH: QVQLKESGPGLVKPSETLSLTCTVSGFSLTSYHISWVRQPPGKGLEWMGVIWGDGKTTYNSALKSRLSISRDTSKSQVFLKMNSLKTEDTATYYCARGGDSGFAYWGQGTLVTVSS VL: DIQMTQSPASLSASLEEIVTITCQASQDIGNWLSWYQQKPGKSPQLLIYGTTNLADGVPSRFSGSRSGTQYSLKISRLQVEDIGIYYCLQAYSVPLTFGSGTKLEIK", "ASSIGNED CATEGORY": "Met"}
{"BINDER": "AB4 (antibody, V domains shown, Hybridoma monoclonal; also called antibody 4; clone 4) VH: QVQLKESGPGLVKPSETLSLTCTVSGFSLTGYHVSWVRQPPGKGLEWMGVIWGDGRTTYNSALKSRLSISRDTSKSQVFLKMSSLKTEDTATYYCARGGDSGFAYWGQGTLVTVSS VL: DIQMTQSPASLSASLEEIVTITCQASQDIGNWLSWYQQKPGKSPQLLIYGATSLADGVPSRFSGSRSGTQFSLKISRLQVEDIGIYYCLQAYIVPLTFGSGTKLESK", "ASSIGNED CATEGORY": "Met"}
{"BINDER": "AB12 (antibody, V domains shown, Hybridoma monoclonal; also called antibody 12; clone 12) VH: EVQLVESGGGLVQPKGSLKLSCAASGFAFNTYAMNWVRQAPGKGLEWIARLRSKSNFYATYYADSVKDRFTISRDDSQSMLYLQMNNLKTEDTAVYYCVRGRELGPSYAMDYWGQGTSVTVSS VL: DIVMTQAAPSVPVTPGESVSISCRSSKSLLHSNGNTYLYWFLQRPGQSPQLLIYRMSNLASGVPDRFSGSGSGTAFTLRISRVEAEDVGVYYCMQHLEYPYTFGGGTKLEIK", "ASSIGNED CATEGORY": "Not met"}

Measured values drawn from patent US20240360228A1 for this set.
